Tested on: Saccharomyces cerevisiae
Assay: protein stability index of tFT-peptide fusion (C-terminal peptide) (PSI (0-1 scale)); higher = more stable (slower turnover)
Settings: genetic background: wild type; temperature: 30 C
Cut-off 0.7 on protein stability index, inclusive. At or above means true; below means false.

- BIOPOLYMER_SEQUENCE: "IQELVNTIRELQ [YPL077C C-terminal 12 aa]"
  LABEL_CLASS: "false"
- BIOPOLYMER_SEQUENCE: "LNWLIKGILTED [HFI1 C-terminal 12 aa]"
  LABEL_CLASS: "false"
- BIOPOLYMER_SEQUENCE: "TFAKSSRNKSKL [PCS60 C-terminal 12 aa]"
  LABEL_CLASS: "true"
- BIOPOLYMER_SEQUENCE: "SGNNLGICFYKE [NUP170 C-terminal 12 aa]"
  LABEL_CLASS: "false"
- BIOPOLYMER_SEQUENCE: "KELEPVPPVSKS [OMS1 C-terminal 12 aa]"
  LABEL_CLASS: "false"
- BIOPOLYMER_SEQUENCE: "NSARKRVFGTVI [DIP2 C-terminal 12 aa]"
  LABEL_CLASS: "false"
- BIOPOLYMER_SEQUENCE: "DDEDEEDDDFKE [CHZ1 C-terminal 12 aa]"
  LABEL_CLASS: "false"
- BIOPOLYMER_SEQUENCE: "YGISSSVLKGST [PHO87 C-terminal 12 aa]"
  LABEL_CLASS: "false"
- BIOPOLYMER_SEQUENCE: "TNGLINQFKEWM [PGI1 C-terminal 12 aa]"
  LABEL_CLASS: "true"
- BIOPOLYMER_SEQUENCE: "KRYTVKKALAKA [RPL14A C-terminal 12 aa]"
  LABEL_CLASS: "false"
- BIOPOLYMER_SEQUENCE: "VILYRSVMKLSP [YOR073W-A C-terminal 12 aa]"
  LABEL_CLASS: "false"
- BIOPOLYMER_SEQUENCE: "VSGFYDHDINGY [APJ1 C-terminal 12 aa]"
  LABEL_CLASS: "true"
- BIOPOLYMER_SEQUENCE: "CLFGMAWLSTIL [YIP4 C-terminal 12 aa]"
  LABEL_CLASS: "false"
- BIOPOLYMER_SEQUENCE: "NQTSFSRDRLRR [RRD1 C-terminal 12 aa]"
  LABEL_CLASS: "true"
- BIOPOLYMER_SEQUENCE: "STITSMNPDTTK [VHS2 C-terminal 12 aa]"
  LABEL_CLASS: "false"
- BIOPOLYMER_SEQUENCE: "AKAGSTPKFRTE [YNL050C C-terminal 12 aa]"
  LABEL_CLASS: "false"
- BIOPOLYMER_SEQUENCE: "LLNSRATQDVVC [VMA3 C-terminal 12 aa]"
  LABEL_CLASS: "false"
